Provide the reported melting point of each item.

Qu. Data request, read-out melting point, for Nc1nnc(CCCC2C3CCCN4CCCC(CN2Cc2ccccc2)C34)s1 (stereo not shown) [Compound 6i]
Ans. 170 to 171 °C

Qu. Which value of melting point has been reported for Cc1ccc(CN2CC3CCCN4CCCC(C2CCCC(=O)O)C34)cc1 (stereo not shown) [Compound 5c, 12-N-p-Methylbenzyl matrinic acid] in the records?
Ans. 106 to 108 °C

Qu. Give its melting point value. Item: CC(=O)Nc1nnc(CCCC2C3CCCN4CCCC(CN2S(=O)(=O)c2ccc(C)cc2)C34)s1 (stereo not shown) [Compound 7a]
Ans. 273 °C (dec.)

Qu. Need melting point, item CNc1nnc(CCCC2C3CCCN4CCCC(CN2S(=O)(=O)c2ccc(C)cc2)C34)s1 (stereo not shown) [Compound 6b]
Ans. 169 to 170 °C

Qu. Would you kindly share the measured melting point for CC(=O)Nc1nnc(CCCC2C3CCCN4CCCC(CN2S(=O)(=O)c2ccc(C(F)(F)F)cc2)C34)s1 (stereo not shown) [Compound 7b] ?
Ans. 197 °C (dec.)

Qu. Fill blank: measured melting point of the compound Cc1ccc(CN2CC3CCCN4CCCC(C2CCCc2nnc(N)s2)C34)cc1 (stereo not shown) [Compound 6l] is ____.
Ans. 167 to 168 °C

Qu. What value of melting point has been recorded for this entry: CNc1nnc(CCCC2C3CCCN4CCCC(CN2Cc2ccc(C)cc2)C34)s1 (stereo not shown) [Compound 6m]
Ans. 163 to 164 °C
